- Target under test: Pin1 WW domain (Pin1WW, residues 1–41) (human, UniProt Q13526 1-41)
- Sequence (Q13526 1-41): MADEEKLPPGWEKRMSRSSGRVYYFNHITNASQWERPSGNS
- Measurement notes: NMR titration
Non-standard residues stand in square brackets, D forms with d. No end group written: not given here. pT = C[C@@H](OP(=O)(O)O)[C@H](N)C(=O)O; pS = N[C@@H](COP(=O)(O)O)C(=O)O
Measurement type: Kd (µM)

a. KKAVK[pS]PAKAKAW [histone H1.1 phosphopeptide KKAVKpSPAKAKAW]
b. KATGAA[pT]PKKSAKW [histone H1.4 phosphopeptide KATGAApTPKKSAKW]
Query: Which record shows the lower Kd: the first, a , or the second, b ? Choose, then provide that item's label.
Result: b
